In this section, each of the molecules is paired with its reported MIC A. baumannii NCTC 13423.
Tested on: Acinetobacter baumannii
assay.name: MIC, sole activity (no second agent)
Format: cell-based
experimental.context: in the absence of Rifampicin; strain NCTC13423
Structures can show the parent of a compound that is named as a salt. Bridge positions count the residues as written; N and C are the ends. Square brackets hold non-standard residues; d marks the D form. Peptide text beside a SMILES is read from it. * marks the point of attachment. ξ: configuration not given here. ξβ3hGly(cHex) = NC(CC(=O)*)C1CCCCC1; Thr(3ξ) = CC(O)[C@H](N)C(=O)O; X9 = CC(C)[C@H](N)CCC(=O)*; Dab = NCC[C@H](N)C(=O)O; Dap = NC[C@H](N)C(=O)O; Inp = O=C(O)C1CCNCC1; X16 = CN(C)CCCC(=O)*; X15 = O=C(C1CCNC1)*; X4 = NC1CCCC1C(=O)*
The reply should contain only the number, in micrograms/mL.

[[record]]
molecule = "CC(C)C[C@@H]1NC(=O)[C@@H](Cc2ccccc2)NC(=O)[C@H](CCN)NC(=O)[C@@H](NC(=O)[C@H](CCN)NC(=O)[C@@H](NC(=O)C2CCNC2)C(C)O)CCNC(=O)[C@H](C(C)O)NC(=O)[C@H](CCN)NC(=O)[C@H](CCN)NC1=O (stereo partly drawn) [Example 9] (X15-[Thr(3ξ)][Dab][Dab][Dab][dF]L[Dab][Dab][Thr(3ξ)]; lactam 3-C)"
unit_spec = "micrograms/mL"
val = 2

[[record]]
molecule = "CC(C)C[C@@H]1NC(=O)[C@@H](Cc2ccccc2)NC(=O)[C@H](CCN)NC(=O)[C@@H](NC(=O)[C@H](CCN)NC(=O)[C@@H](NC(=O)CCCN(C)C)C(C)O)CCNC(=O)[C@H](C(C)O)NC(=O)[C@H](CCN)NC(=O)[C@H](CCN)NC1=O (stereo partly drawn) [Example 11] (X16-[Thr(3ξ)][Dab][Dab][Dab][dF]L[Dab][Dab][Thr(3ξ)]; lactam 3-C)"
unit_spec = "micrograms/mL"
val = 4


Enquiry: Give the reported value of MIC A. baumannii NCTC 13423 for this record: CC(C)C[C@H]1NC(=O)[C@H](CCN)NC(=O)[C@@H](NC(=O)[C@H](CCN)NC(=O)[C@@H](NC(=O)CC(N)C2CCCCC2)C(C)O)CCNC(=O)[C@H](C(C)O)NC(=O)[C@H](CCN)NC(=O)[C@H](CCN)NC(=O)[C@H](C(C)O)NC1=O (stereo partly drawn) [Example 50] ({ξβ3hGly(cHex)}-[Thr(3ξ)][Dab][Dab][Dab][dL][Thr(3ξ)][Dab][Dab][Thr(3ξ)]; lactam 3-C)
Return: 2

Enquiry: Give the reported value of MIC A. baumannii NCTC 13423 for this record: CC(C)C[C@@H]1NC(=O)[C@@H](Cc2ccccc2)NC(=O)[C@H](CCN)NC(=O)[C@@H](NC(=O)[C@H](CCN)NC(=O)[C@@H](NC(=O)CC[C@@H](N)C(C)C)C(C)O)CCNC(=O)[C@H](C(C)O)NC(=O)[C@H](CCN)NC(=O)[C@H](CCN)NC1=O (stereo partly drawn) [Example 22] (X9-[Thr(3ξ)][Dab][Dab][Dab][dF]L[Dab][Dab][Thr(3ξ)]; lactam 3-C)
Return: 0.5

Enquiry: Give the reported value of MIC A. baumannii NCTC 13423 for this record: CC(C)C[C@@H]1NC(=O)[C@@H](Cc2ccccc2)NC(=O)[C@H](CCN)NC(=O)[C@@H](NC(=O)[C@H](CCCCN)NC(=O)[C@@H](NC(=O)C2CCNCC2)C(C)O)CCNC(=O)[C@H](C(C)O)NC(=O)[C@H](CCN)NC(=O)[C@H](CCN)NC1=O (stereo partly drawn) [Example 51, TFA salt] (H-[Inp][Thr(3ξ)]K[Dab][Dab][dF]L[Dab][Dab][Thr(3ξ)]; lactam 4-C)
Return: 8

Enquiry: Give the reported value of MIC A. baumannii NCTC 13423 for this record: CC(C)C[C@@H]1NC(=O)[C@@H](Cc2ccccc2)NC(=O)[C@H](CCN)NC(=O)[C@@H](NC(=O)[C@H](CN)NC(=O)[C@@H](NC(=O)C2CCCC2N)C(C)O)CCNC(=O)[C@H](C(C)O)NC(=O)[C@H](CCN)NC(=O)[C@H](CCN)NC1=O (stereo partly drawn) [Example 43, TFA salt] (X4-[Thr(3ξ)][Dap][Dab][Dab][dF]L[Dab][Dab][Thr(3ξ)]; lactam 3-C)
Return: 0.125
